Biological target: T1, Human CD40 on cells (Raji, Daudi, IM-9) (human, UniProt P25942 21-277)
T1 construct: whole, on cells; also called cell surface CD40; hCD40
T1 sequence (P25942 21-277): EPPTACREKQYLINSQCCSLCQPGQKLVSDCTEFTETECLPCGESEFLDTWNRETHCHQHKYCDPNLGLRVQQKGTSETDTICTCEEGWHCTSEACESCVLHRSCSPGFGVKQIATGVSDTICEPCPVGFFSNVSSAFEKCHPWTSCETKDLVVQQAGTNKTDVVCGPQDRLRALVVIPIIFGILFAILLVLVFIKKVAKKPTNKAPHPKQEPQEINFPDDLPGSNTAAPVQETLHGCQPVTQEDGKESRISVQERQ
Experiment: flow cytometry on Raji cells, anti-Myc staining (axis Myc); number not labelled as MFI on the sheet; 2nd Ab only -30.7

# BINDER, MFI
records = [
    ("2B1-Ck-L1-Myc (scFv) scFv: QAALTQPSSVSANPGETVKITCSGGDSYAGSYYYGWFQQKAPGSAPVTVIYYNDKRPSDIPSRFSGSTSGSTSTLTITGVQAEDEAVYYCGSIDTSSGTGIFGAGTTLTVLGQSSRSSGGGGSSGGGGSAVTLDESGGGLQTPGGALSLVCKGSGFTFSSYQMFWVRQAPGKGLEYVAEISGSGLSTWYAPAVKGRATISRDNGQSTVRLQLNNLRAEDTGTYYCAKAAGSCGVGTCAGGIVDGIDAWGHGTEVIVSSTSGQAGQRTVAAPSVFIFPPSDEQLKSGTASVVCLLNNFYPREAKVQWKVDNALQSGNSQESVTEQDSKDSTYSLSSTLTLSKADYEKHKVYACEVTHQGLSSPVTKSFNRGESGGGGSEQKLISEEDL", 1520),
]
